Origin of values: patent US11602534B2

system: FLT3-ITD-BaF3; test: Proliferation of FLT3-ITD-BaF3 cells, CCK8 cell viability assay; format: cell-based; details: Mus musculus, 72 hours, stably expressing FLT3/ITD
measurement-type: GI50 (nM)

| compound | GI50, nM |
| --- | --- |
| Cc1ccc(NC(=O)Cc2ccc(Nc3cc(NCCN)ncn3)cc2)cc1C(F)(F)F | 14 |
| Cc1ccc(NC(=O)NC2CCC(Oc3cc(NCCN)ncn3)CC2)cc1C(F)(F)F (centres unmarked) | 87 |
| Cc1ccc(NC(=O)NC2CCC(Oc3cc(NCCNC(=O)OC(C)(C)C)ncn3)CC2)cc1C(F)(F)F (centres unmarked) | 149 |

1: CC(=O)Nc1cc(Nc2ccc(NC(=O)Cc3ccccc3C(F)(F)F)cc2)ncn1
2: Cc1ccc(NC(=O)N[C@H]2CC[C@H](Oc3cc(NCCO)ncn3)CC2)cc1C(F)(F)F
3: CCN1CCN(Cc2ccc(NC(=O)Nc3ccc(Oc4cc(NCCN)ncn4)cc3)cc2C(F)(F)F)CC1
4: Cc1ccc(NC(=O)Nc2ccc(Oc3cc(N4CCOC[C@H]4C)ncn3)cc2)cc1C(F)(F)F
5: CC(=O)Nc1cc(Oc2ccc(NC(=O)Cc3ccc(Cl)cc3Cl)cc2)ncn1
Problem: Order each entry by recorded GI50, climbing from the minimum. When ranking, write the labels in the order the request describes.
Result: 5, 3, 4, 2, 1
(5: 4 nM, 3: 7 nM, 4: 37 nM, 2: 274 nM, 1: 444 nM)

A: Cc1ccc(NC(=O)Nc2ccc(Oc3cc(N4CCN[C@H](C)C4)ncn3)cc2)cc1C(F)(F)F
B: CN1CCN(Cc2ccc(NC(=O)Nc3ccc(Oc4cc(NCCN)ncn4)cc3)cc2C(F)(F)F)CC1
Problem: Identify the entry with the smaller GI50: A or B . Please indicate the selected item by its label.
Result: B
(B: 9 nM, A: 300 nM)

A: Cc1ccc(NC(=O)Nc2ccc(Oc3cc(N4CCN(C(=O)CC(C)(C)C)C[C@H]4C)ncn3)cc2)cc1C(F)(F)F
B: CC(=O)Nc1cc(Oc2ccc(CC(=O)Nc3ccc(C)cc3C(F)(F)F)cc2)ncn1
C: Cc1ccc(NC(=O)Nc2ccc(Oc3cc(NCC(N)=O)ncn3)cc2)cc1C(F)(F)F
D: CC(=O)Nc1cc(Oc2ccc(CC(=O)Nc3cccc(C(F)(F)F)c3)cc2)ncn1
Problem: Rank order required: GI50, descending. When ranking, write the labels in the order the request describes.
Result: A, B, C, D
